# Measured On: HLA-A*24:02
# Protocol: IEDB peptide-MHC binding, purified MHC/direct/fluorescence; filed as Kd, often an IC50 or EC50 that approximates it; bounds were set here for any values at or beyond the usual limits of such assays
# Test Context: source organism: Influenza A virus (A/mallard/NZ/1/97(H5N2))
pKd: −log10 of the molar value.
Reported Property: pKd

// sample IAGFIEGGW , its pKd was ≤ 4.70

* * *

# Measured On: HLA-B*45:06
# Protocol: IEDB peptide-MHC binding, purified MHC/competitive/fluorescence; filed as Kd, often an IC50 or EC50 that approximates it; bounds were set here for any values at or beyond the usual limits of such assays
# Test Context: source organism: Homo sapiens
pKd: −log10 of the molar value.
Reported Property: pKd

// sample RLPKDFVDL , its pKd was ≤ 5.30
